# target under test: C3a receptor (C3aR) (Homo sapiens, UniProt Q16581)
# Construct: peripheral blood mononuclear cells were isolated from buffy coat (obtained from Australian Red Cross Blood Service, Kelvin Grove); endogenous in cells; host or cells: primary human monocyte-derived macrophages (HMDM) differentiated from CD14+ monocytes of donor buffy coat
# Sequence (Q16581 whole entry): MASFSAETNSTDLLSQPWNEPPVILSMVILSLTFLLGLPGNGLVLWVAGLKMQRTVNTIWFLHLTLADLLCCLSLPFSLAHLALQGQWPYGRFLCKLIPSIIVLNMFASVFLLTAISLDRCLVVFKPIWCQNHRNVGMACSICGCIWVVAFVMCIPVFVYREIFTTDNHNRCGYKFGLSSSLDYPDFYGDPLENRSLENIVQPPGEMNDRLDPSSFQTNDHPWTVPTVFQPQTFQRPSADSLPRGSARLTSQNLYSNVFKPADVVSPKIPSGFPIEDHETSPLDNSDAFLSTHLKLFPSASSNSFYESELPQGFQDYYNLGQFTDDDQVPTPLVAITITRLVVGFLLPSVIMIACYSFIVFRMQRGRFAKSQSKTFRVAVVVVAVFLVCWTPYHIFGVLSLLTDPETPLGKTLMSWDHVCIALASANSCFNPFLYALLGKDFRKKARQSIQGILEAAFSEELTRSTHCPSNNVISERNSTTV
# method summary: Competitive binding with [^125I]-C3a in HMDM
# test context: Table 8; HMDM; read-out: Receptor Binding Affinity ^125I IC50
Entries and their measured IC50 follow.
Provide only the numeric value, understood in nM.

                                   compound  numeric_value
0  N=C(N)NCCC[C@H](NC(=O)c1oc(C(c2ccccc2)c2ccccc2)nc1-c1ccccc1)C(=O)O            123
1  NC(N)=NCCC[C@H](NC(=O)COCC(c1ccccc1)c1ccccc1)C(=O)O [SB290157, reference compound]             11

# returns recorded IC50 (system: C3a receptor (C3aR) (Homo sapiens, UniProt Q16581)) for `N=C(N)NCCC[C@H](NC(=O)c1noc(C(c2ccccc2)c2ccccc2)n1)C(=O)O`
447
